# Test system: S. typhimurium TA98
# assay-text: Ames microplate test, TA98
# Assay type: cell-based, Salmonella typhimurium
# settings: 0.5 mM, + S9
Readings of Increase in the number of yellow wells compared to the reference level, TA98 for the listed compounds
readout-label: Increase in the number of yellow wells compared to the reference level, TA98

{"columns": ["compound", "reported"],
 "data": [
  ["O=C(/C=C/c1ccccc1)NCCCCCCO [H-425/21]", 0.42],
  ["O=C(/C=C/c1ccc(Cl)cc1)NCCCCCO [Compound A-111]", 1.50],
  ["O=C(/C=C/c1ccccc1)NCCCCCO [Compound A-133]", 0.50],
  ["CCC(O)CNC(=O)/C=C/c1ccc(Cl)cc1 (stereo not shown) [Compound A-67]", 0.31]
]}

Entry source: patent US20250263376A1
